Experiment: Biodistribution in BALB/c nu/nu mice bearing PC-3 xenografts
Type: in vivo
Details: female, BALB/c nu/nu, mouse, muscle, iv, 50 pmol, total radioactivity; 2 h p.i., i.v.; read-out: Radionuclide concentration, Muscle
Protocol: Female BALB/c nu/nu mice of 18–22 g weight were used in the study. All procedures with animals were conducted in accordance with the EU Directive 2010/63/EU for animal experiments and Swedish national legislation concerning the protection of laboratory animals. […] For tumor inoculation, 8·10^6 PC-3 cells in 100 µL PBS were injected subcutaneously into the right hind leg of mice. Mouse weight and tumor size were measured every 2–3 days, and tumor volume was estimated by ellipsoid approximation. […]
Starred links: 1 amine or outer side, 2 acyl side, 3 side chain; linkers in the order of their positions; H or OH if unused. Non-standard residues stand in square brackets, D forms with d. Residues, ends and D or L forms follow the SMILES beside them. *: point of attachment. NOTA = O=C(O)CN1CCN(CC(=O)O)CCN(CC(=O)*)CC1; Sta = CC(C)C[C@H](N)[C@@H](O)CC(=O)O; X2 = O=C(COc1cccc(CN[*:1])c1)[*:2]; X1 = O=C(Cc1ccccc1CCN[*:1])[*:2]; X3 = O=C(COc1ccccc1CN[*:1])[*:2]
METRIC: tissue uptake at 2 h (%ID/g)
Lab book: enter the figure in %ID/g, no units written.

MOLECULE | RESULT UNITS | tissue uptake at 2 h
CC(=O)N[C@@H](CCCCNC(=O)CN1CCN(CC(=O)O)CCN(CC(=O)O)CC1)C(=O)NCCc1ccccc1CC(=O)N[C@H](Cc1ccccc1)C(=O)N[C@@H](CCC(N)=O)C(=O)N[C@@H](Cc1c[nH]c2ccccc12)C(=O)N[C@@H](C)C(=O)N[C@H](C(=O)NCC(=O)N[C@@H](Cc1c[nH]cn1)C(=O)N[C@@H](CC(C)C)[C@@H](O)CC(=O)N[C@@H](CC(C)C)C(N)=O)C(C)C [[^68Ga]Ga-NOTA-oET-RM26, metal not drawn] (Ac-K(NOTA)[X1][dF]QWAVGH[Sta]L-NH2) | %ID/g | 0.15
CC(=O)N[C@@H](CCCCNC(=O)CN1CCN(CC(=O)O)CCN(CC(=O)O)CC1)C(=O)NCc1ccccc1OCC(=O)N[C@H](Cc1ccccc1)C(=O)N[C@@H](CCC(N)=O)C(=O)N[C@@H](Cc1c[nH]c2ccccc12)C(=O)N[C@@H](C)C(=O)N[C@H](C(=O)NCC(=O)N[C@@H](Cc1c[nH]cn1)C(=O)N[C@@H](CC(C)C)[C@@H](O)CC(=O)N[C@@H](CC(C)C)C(N)=O)C(C)C [[^68Ga]Ga-NOTA-oMA-RM26, metal not drawn] (Ac-K(NOTA)[X3][dF]QWAVGH[Sta]L-NH2) | %ID/g | 0.16

query: Consider the molecule CC(=O)N[C@@H](CCCCNC(=O)CN1CCN(CC(=O)O)CCN(CC(=O)O)CC1)C(=O)NCc1cccc(OCC(=O)N[C@H](Cc2ccccc2)C(=O)N[C@@H](CCC(N)=O)C(=O)N[C@@H](Cc2c[nH]c3ccccc23)C(=O)N[C@@H](C)C(=O)N[C@H](C(=O)NCC(=O)N[C@@H](Cc2c[nH]cn2)C(=O)N[C@@H](CC(C)C)[C@@H](O)CC(=O)N[C@@H](CC(C)C)C(N)=O)C(C)C)c1 [[^68Ga]Ga-NOTA-mMA-RM26, metal not drawn] (Ac-K(NOTA)[X2][dF]QWAVGH[Sta]L-NH2) and give its measured tissue uptake at 2 h.
result: 0.12
